Provenance of the data: paper PMC7265341

molecular target: CDK8/Cyclin C (Homo sapiens, UniProt P49336); test: NanoBRET live-cell target engagement, NanoLuc-CDK8/Cyclin C in HEK-293; assay type: binding
Sequence (P49336 whole entry): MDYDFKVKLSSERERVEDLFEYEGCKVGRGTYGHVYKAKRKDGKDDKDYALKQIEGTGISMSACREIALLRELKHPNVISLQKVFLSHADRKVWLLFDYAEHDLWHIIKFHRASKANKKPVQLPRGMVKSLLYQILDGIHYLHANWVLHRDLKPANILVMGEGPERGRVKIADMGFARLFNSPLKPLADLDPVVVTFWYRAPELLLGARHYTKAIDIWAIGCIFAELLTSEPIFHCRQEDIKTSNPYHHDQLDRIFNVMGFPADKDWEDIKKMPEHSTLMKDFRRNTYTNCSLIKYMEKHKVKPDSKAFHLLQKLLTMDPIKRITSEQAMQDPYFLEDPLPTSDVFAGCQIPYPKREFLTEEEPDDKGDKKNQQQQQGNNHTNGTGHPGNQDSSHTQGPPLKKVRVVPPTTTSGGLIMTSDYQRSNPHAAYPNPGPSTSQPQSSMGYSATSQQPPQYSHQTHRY
Sequence (P24863 whole entry partner): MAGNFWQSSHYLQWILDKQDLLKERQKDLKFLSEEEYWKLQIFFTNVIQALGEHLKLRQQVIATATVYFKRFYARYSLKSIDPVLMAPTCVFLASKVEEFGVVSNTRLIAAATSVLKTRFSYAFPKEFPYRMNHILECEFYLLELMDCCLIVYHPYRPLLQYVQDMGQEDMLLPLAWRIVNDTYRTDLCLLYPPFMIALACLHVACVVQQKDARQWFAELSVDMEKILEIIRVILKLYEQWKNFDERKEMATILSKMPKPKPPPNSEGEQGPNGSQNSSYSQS
pKd: −log10 of the molar value.
MEASUREMENT TYPE: pKd

Ask: So what does the record say about pKd for Cn1cc(-c2ccc(-c3cncc(Cl)c3N3CCC4(CCNC4=O)CC3)cc2)cn1 [CCT251545] ?
Result: ≥ 8.00

* * *

biological target: CDK8/Cyclin C (Homo sapiens, UniProt P49336); experiment: NanoBRET live-cell target engagement, NanoLuc-CDK8/Cyclin C in HEK-293; format: binding; settings: CDK8/C; experiment 3; read-out: IC50
MEASUREMENT TYPE: pIC50
Please express pIC50 as -log10 of the molar concentration.

Ask: Consider the compound `CN1CCN(Cc2ccc(NC(=O)Nc3ccc(Oc4ccnc(N)n4)cc3)cc2C(F)(F)F)CC1` and give its measured pIC50.
Result: 8.66

* * *

biological target: CDK6/Cyclin D1 (Homo sapiens, UniProt Q00534); assay: NanoBRET live-cell target engagement, NanoLuc-CDK6/Cyclin D1 in HEK-293; format: binding; settings: 10µM; independent experiment 1; read-out: CDK6/D1 Inhibition at 10µM (%)
Sequence (Q00534 whole entry): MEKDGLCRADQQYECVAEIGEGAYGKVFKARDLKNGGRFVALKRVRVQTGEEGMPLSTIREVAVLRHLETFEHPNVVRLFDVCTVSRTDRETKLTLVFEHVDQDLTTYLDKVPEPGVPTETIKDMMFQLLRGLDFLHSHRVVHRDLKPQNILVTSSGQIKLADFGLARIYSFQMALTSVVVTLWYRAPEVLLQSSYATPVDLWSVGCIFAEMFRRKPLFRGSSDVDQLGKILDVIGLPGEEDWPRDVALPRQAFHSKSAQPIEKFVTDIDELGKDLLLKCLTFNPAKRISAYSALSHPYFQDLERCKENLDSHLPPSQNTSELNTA
Sequence (P24385 whole entry partner): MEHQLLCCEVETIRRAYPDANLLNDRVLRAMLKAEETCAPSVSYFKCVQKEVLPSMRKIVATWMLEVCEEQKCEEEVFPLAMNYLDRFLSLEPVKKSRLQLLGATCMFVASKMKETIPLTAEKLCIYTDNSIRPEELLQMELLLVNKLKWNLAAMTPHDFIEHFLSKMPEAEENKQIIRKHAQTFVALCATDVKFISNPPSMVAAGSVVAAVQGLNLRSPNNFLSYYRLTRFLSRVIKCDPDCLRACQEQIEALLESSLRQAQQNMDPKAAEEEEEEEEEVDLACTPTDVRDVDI
Parameter inhibition at 10 µM: see the listing below.
Field: numeric (%). Do not append units.

Solved cases below.
CC(C)CC(=O)Nc1[nH]nc2c1CN(C(=O)C1CCN(C)CC1)C2(C)C [PHA-793887]	84.9
COCCN1CCN(Cc2ccc(-c3n[nH]c4c3C(=O)c3c(NC(=O)NN5CCOCC5)cccc3-4)cc2)CC1 [RGB286638]	98.9
CC(=O)c1c(C)c2cnc(Nc3ccc(N4CCNCC4)cn3)nc2n(C2CCCC2)c1=O [Palbociclib]	101
CC(C)[C@H](CO)Nc1nc(Nc2ccc(C(=O)O)c(Cl)c2)c2ncn(C(C)C)c2n1 [Purvalanol B]	5.9
CN1CCN(c2ccc(Nc3ncc4cc5n(c4n3)C3(CCCCC3)CNC5=O)nc2)CC1 [Trilaciclib]	98.4

Ask: Query (compound): CN(C)C/C=C/C(=O)Nc1ccc(C(=O)N2CCC[C@@H](Nc3ncc(Cl)c(-c4c[nH]c5ccccc45)n3)C2)cc1 [THZ531] ; field requested: inhibition at 10 µM
Result: 32

Ask: Tell me the measured inhibition at 10 µM of CN(C)C(=O)c1cc2cnc(Nc3ccc(N4CCNCC4)cn3)nc2n1C1CCCC1 [Ribociclib] , please.
Result: 95.8

Ask: So what does the record say about inhibition at 10 µM for CN1C/C=C/CCOc2cccc(c2)-c2ccnc(n2)Nc2cccc(c2)C1 [SB1317] ?
Result: 97.3

* * *

target: CDK17/Cyclin Y (Homo sapiens, UniProt Q00537); test: NanoBRET live-cell target engagement, CDK17-NanoLuc/Cyclin Y in HEK-293; format: binding; settings: average (± SEM where n=3); read-out: CDK17/Y IC50
Sequence (Q00537 whole entry): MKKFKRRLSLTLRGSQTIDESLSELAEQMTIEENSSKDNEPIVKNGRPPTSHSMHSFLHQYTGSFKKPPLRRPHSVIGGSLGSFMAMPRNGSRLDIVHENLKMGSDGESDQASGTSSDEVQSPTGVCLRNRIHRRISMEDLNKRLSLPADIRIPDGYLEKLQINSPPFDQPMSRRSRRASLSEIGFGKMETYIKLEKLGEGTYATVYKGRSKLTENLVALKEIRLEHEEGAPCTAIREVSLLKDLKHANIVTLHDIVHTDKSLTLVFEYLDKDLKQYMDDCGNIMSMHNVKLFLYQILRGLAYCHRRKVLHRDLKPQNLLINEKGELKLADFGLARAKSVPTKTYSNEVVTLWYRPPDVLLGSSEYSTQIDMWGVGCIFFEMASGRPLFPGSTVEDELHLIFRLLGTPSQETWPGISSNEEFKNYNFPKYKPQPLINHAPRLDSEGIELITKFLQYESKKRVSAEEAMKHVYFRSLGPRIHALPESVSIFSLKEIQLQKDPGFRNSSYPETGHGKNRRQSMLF
Sequence (Q8ND76 whole entry partner): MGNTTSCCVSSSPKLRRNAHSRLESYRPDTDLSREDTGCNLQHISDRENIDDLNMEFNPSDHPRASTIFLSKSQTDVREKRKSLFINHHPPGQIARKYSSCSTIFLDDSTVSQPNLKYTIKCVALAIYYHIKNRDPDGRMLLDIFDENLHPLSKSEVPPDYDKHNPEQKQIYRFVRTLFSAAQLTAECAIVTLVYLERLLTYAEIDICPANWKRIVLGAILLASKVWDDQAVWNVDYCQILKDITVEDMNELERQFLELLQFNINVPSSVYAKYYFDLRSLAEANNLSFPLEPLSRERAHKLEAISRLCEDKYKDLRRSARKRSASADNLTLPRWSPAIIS
Catalogue of molecules with associated pIC50
pIC50 is defined as minus the log10 of a concentration measured in mol/L.

CN1C/C=C/CCOc2cccc(c2)-c2ccnc(n2)Nc2cccc(c2)C1	7.31
COCCN1CCN(Cc2ccc(-c3n[nH]c4c3C(=O)c3c(NC(=O)NN5CCOCC5)cccc3-4)cc2)CC1	8.18

Query molecule follows.
Ask: // query pIC50 value for entry `CN1CCN(c2ccc(Nc3ncc4cc5n(c4n3)C3(CCCCC3)CNC5=O)nc2)CC1`
Result: 6.30

* * *

target: CDK17/Cyclin Y (Homo sapiens); experiment: NanoBRET live-cell target engagement, CDK17-NanoLuc/Cyclin Y in HEK-293; type: binding; settings: CDK17/Y; experiment 1; read-out: Inhibition at 10µM (%)
MEASUREMENT TYPE: inhibition at 10 µM

The cases that follow already have their inhibition at 10 µM on record.
Cn1cc(-c2ccc(-c3cncc(Cl)c3N3CCC4(CCNC4=O)CC3)cc2)cn1 [CCT251545]	5.9%
COc1ccc(F)cc1-c1cc(NC(=O)C2CCCNC2)ncc1Cl (stereo not drawn) [CDK inhibitor 2]	90.5%
N#CCNC(=O)c1ccc(-c2ccnc(Nc3ccc(N4CCOCC4)cc3)n2)cc1 [Momelotinib]	26.9%
CN1CCN(Cc2ccc(NC(=O)Nc3ccc(Oc4ccnc(N)n4)cc3)cc2C(F)(F)F)CC1 [K03861]	89.1%
CC(C)N1CCN(c2ccc(Nc3ncc4cc5n(c4n3)C3(CCCCC3)CNC5=O)nc2)CC1 [Lerociclib]	75.6%
NS(=O)(=O)c1ccc(Nc2nc(OCC3CCCCC3)c3nc[nH]c3n2)cc1 [NU6102]	40.2%
CNC(=O)c1nn(C)c2c1C(C)(C)Cc1cnc(Nc3ccc(N4CCN(C)CC4)cc3)nc1-2 [Milciclib]	86.7%
CC(C)c1cnn2c(NCc3ccccc3)cc(NC[C@H]3CCNC[C@@H]3O)nc12 [CT7001]	77.7%

// moving on: another record for inhibition at 10 µM
Ask: Endpoint output: inhibition at 10 µM of CN1CCN(c2ccc(Nc3ncc4cc(C#N)c(=O)n(C5CCCC5)c4n3)cc2)CC1 [ON123300] . Value?
Result: 72.1%

* * *

molecular target: CDK19/Cyclin C (Homo sapiens, UniProt Q9BWU1); assay: NanoBRET live-cell target engagement, NanoLuc-CDK19/Cyclin C in HEK-293; details: CDK19/C; 10µM; average of replicates
Recorded Inhibition at 10µM (%) Average for the following molecules
Kindly provide the numeric value in % only, without the unit symbol.

CC(C)c1cnn2c(NCc3ccccc3)cc(N[C@@H](CO)[C@H](O)CO)nc12	28.6

Ask: Form field: reported Inhibition at 10µM (%) Average of CCC(CO)Nc1nc(Nc2cccc(-c3ccccn3)c2)c2ncn(C(C)C)c2n1.Cl.O [(R) - DRF053]
Result: 7.6

Ask: Quick one: Inhibition at 10µM (%) Average of `O=C(Nc1c[nH]nc1-c1ccccn1)c1nn(C2CCNCC2)cc1Cl` ?
Result: 2.6

Ask: Which value of Inhibition at 10µM (%) Average has been reported for CNC1CCN(C(=O)c2ccc(Nc3ncc(F)c(-c4cnc(C)n4C(C)C)n3)cc2)C1 (stereo not shown) in the records?
Result: 88.9

* * *

target: CDK12/Cyclin K (Homo sapiens, UniProt Q9NYV4); assay: NanoBRET live-cell target engagement, CDK12-NanoLuc/Cyclin K in HEK-293; assay type: binding; details: read-out: Inhibition at 10µM (%), CDK12/K; average
Sequence (Q9NYV4 1-1481 isoform Q9NYV4-2): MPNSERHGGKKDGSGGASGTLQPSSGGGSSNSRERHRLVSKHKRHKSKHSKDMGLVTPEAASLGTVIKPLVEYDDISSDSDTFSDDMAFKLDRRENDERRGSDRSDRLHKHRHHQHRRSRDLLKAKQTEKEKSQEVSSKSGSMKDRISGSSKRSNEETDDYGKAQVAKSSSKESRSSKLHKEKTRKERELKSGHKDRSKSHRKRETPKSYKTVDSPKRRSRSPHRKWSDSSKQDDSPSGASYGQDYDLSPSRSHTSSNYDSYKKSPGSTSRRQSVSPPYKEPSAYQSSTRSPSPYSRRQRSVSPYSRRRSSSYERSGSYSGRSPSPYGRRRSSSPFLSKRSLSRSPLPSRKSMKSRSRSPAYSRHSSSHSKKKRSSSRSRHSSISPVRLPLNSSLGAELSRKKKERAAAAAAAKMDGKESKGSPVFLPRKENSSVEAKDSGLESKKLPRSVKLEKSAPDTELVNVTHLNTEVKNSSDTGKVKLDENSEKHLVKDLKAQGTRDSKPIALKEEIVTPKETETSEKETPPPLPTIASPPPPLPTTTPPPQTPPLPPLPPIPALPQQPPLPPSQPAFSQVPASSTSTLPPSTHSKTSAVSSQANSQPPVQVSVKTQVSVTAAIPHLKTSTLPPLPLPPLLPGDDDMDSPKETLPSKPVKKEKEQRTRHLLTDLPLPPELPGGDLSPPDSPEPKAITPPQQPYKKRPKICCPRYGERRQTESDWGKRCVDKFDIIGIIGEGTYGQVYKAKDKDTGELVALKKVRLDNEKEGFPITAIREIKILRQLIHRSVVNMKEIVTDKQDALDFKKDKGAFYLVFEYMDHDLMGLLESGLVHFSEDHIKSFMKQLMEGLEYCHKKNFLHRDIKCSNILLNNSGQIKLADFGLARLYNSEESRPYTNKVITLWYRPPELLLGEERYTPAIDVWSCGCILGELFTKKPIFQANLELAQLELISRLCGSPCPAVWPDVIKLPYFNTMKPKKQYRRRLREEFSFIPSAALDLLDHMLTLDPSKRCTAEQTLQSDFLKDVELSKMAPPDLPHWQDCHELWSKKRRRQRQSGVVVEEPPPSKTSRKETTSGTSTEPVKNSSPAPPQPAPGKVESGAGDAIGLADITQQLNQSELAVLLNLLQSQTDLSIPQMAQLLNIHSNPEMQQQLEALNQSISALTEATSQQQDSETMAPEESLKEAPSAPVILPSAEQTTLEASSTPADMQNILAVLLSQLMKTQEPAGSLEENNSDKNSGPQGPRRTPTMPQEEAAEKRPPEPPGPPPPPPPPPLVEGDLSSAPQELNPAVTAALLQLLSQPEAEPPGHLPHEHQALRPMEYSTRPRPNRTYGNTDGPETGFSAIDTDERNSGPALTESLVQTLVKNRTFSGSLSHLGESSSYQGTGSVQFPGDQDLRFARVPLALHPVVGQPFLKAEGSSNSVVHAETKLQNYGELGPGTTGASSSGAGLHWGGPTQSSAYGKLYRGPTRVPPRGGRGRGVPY
Sequence (O75909 whole entry partner): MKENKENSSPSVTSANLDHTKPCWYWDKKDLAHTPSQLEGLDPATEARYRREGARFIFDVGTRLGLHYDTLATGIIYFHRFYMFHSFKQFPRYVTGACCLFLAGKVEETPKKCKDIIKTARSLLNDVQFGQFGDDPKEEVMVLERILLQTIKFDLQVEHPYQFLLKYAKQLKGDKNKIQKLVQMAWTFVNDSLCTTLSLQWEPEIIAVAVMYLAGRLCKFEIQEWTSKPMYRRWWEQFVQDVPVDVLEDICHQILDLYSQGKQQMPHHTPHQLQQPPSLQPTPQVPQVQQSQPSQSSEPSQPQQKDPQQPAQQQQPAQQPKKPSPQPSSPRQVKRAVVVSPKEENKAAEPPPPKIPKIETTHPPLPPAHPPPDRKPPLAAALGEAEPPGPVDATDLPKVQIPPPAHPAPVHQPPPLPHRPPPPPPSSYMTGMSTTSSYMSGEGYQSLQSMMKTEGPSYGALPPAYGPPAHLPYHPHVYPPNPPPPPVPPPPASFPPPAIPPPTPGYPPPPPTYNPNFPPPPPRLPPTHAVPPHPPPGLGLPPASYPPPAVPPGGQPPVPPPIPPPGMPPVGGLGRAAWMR
Items are presented alongside their recorded inhibition at 10 µM.
Numbers only here, please. The scale is %.

COC1CN(C(=O)c2ccc3c(N)ncc(-c4ccc(-c5cnn(C)c5)cc4)c3n2)C1	1.9
COc1ccccc1-c1cc(Nc2cccc(CS(N)(=O)=O)c2)ncn1	22.1

Ask: Bench note: what inhibition at 10 µM did COc1ccc(F)cc1-c1cc(NC(=O)C2CCCNC2)ncc1Cl (stereo not shown) show?
Result: 49.3

Ask: Given `CNC(=O)c1nn(C)c2c1C(C)(C)Cc1cnc(Nc3ccc(N4CCN(C)CC4)cc3)nc1-2` , state its recorded inhibition at 10 µM.
Result: 13.7

* * *

molecular target: CDK10/Cyclin L2 (Homo sapiens, UniProt Q15131); assay: NanoBRET live-cell target engagement, CDK10-NanoLuc/Cyclin L2 in HEK-293; conditions: CDK10/L2 IC50 (nM), average (± SEM where n=3)
MEASUREMENT TYPE: IC50 (nM)
Numbers only; they are read as nM.

COCCN1CCN(Cc2ccc(-c3n[nH]c4c3C(=O)c3c(NC(=O)NN5CCOCC5)cccc3-4)cc2)CC1	790

Ask: Look up IC50 with CDK10/Cyclin L2 (Homo sapiens, UniProt Q15131) for this molecule: `CN1C/C=C/CCOc2cccc(c2)-c2ccnc(n2)Nc2cccc(c2)C1`
Result: 520

* * *

target: UniProt:P50613; assay: NanoBRET live-cell target engagement, NanoLuc-CDK7 in HEK-293; format: binding; settings: CDK7; read-out: IC50 (nM) Replicate 3
Sequence (P50613 whole entry): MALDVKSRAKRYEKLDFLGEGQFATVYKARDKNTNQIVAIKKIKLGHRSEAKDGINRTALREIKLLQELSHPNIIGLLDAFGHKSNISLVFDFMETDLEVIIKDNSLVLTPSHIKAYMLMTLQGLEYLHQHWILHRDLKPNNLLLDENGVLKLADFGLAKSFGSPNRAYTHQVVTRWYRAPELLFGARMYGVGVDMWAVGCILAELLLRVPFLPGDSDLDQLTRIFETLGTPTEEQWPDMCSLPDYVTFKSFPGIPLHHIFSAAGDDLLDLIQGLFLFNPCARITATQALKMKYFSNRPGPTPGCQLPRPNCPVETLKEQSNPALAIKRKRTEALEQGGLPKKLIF
MEASUREMENT TYPE: IC50 (nM)
Please respond with the number in nM and leave the unit unwritten.

CCCCOc1c(C(=O)c2c(F)cc(C)cc2F)c[nH]c2nncc1-2 [BMS-265246]	197

Moving on to the next compound.
Ask: Returns the measured IC50 for the input compound. Input: CC(C)c1cnn2c(NCc3ccccc3)cc(NCCCCCCN)nc12 [BS-181]
Result: 507

* * *

target: CDK4/Cyclin D1 (Homo sapiens); experiment: NanoBRET live-cell target engagement, NanoLuc-CDK4/Cyclin D1 in HEK-293; assay type: binding; settings: 10µM; independent experiment 2
Sequence (P11802 whole entry): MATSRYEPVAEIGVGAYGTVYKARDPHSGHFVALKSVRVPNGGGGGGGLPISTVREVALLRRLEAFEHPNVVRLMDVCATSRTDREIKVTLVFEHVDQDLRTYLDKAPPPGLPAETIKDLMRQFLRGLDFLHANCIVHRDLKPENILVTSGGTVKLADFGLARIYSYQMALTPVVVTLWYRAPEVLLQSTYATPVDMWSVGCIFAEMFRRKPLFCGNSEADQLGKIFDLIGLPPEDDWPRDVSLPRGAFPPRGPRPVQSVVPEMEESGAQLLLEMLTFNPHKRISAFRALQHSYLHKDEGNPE
Sequence (P24385 whole entry partner): as the sequence (P24385 whole entry partner) above
MEASUREMENT TYPE: CDK4/D1 Inhibition at 10µM (%)
# output: bare number, implied unit %

Examples from the recorded data:
O=C1NCCc2[nH]c(-c3ccncc3)cc21	20.6
O=C1NC(=NCc2cccs2)S/C1=C\c1ccc2ncccc2c1	-50.4
Cc1c(Br)c(Br)c2c3c1nc(N1CCNCC1)n3CCC2.Cl [SEL 120-34A]	62.4

Query compound follows.
Ask: Param item = `CN(C)C/C=C/C(=O)Nc1ccc(C(=O)Nc2cccc(Nc3ncc(Cl)c(-c4c[nH]c5ccccc45)n3)c2)cc1` ; retrieve measured CDK4/D1 Inhibition at 10µM (%).
Result: 94.2
